Target: Gamma-secretase (Homo sapiens) (UniProt Q96BI3+Q9NZ42+Q8WW43+P49768+Q92542+P49810)
Test: Selectivity ratio of IC50 for modulation of gamma-secretase (unknown origin) assessed as inhibition of amyloid beta 40 production to IC50 for modulation of gamma-secretase (unknown origin) assessed as inhibition of amyloid beta 42 production
Type: protein-complex assay
test_readout: Ratio IC50

These recorded examples may help you get a feel for the data.
[[record]]
compound = "CC(=O)O[C@@H]([C@@H]1C[C@@H](C)[C@H]2[C@H](O1)[C@H](O)[C@@]1(C)[C@@H]3CC[C@H]4C(C)(C)[C@@H](OC(=O)N5CCC5)CC[C@@]45C[C@@]35CC[C@]21C)C(C)(C)O"
test_readout = "Ratio IC50"
result = 43

[[record]]
compound = "CC(=O)O[C@@H]([C@@H]1C[C@@H](C)[C@H]2[C@H](O1)[C@H](O)[C@@]1(C)[C@@H]3CC[C@H]4C(C)(C)[C@@H](OC(=O)CN(C)C)CC[C@@]45C[C@@]35CC[C@]21C)C(C)(C)O"
test_readout = "Ratio IC50"
result = 15

[[record]]
compound = "CC(=O)O[C@H]1CC[C@]23C[C@]24CC[C@]2(C)[C@@H]5[C@H](O[C@H]([C@H](OC(C)=O)C(C)(C)O)C[C@H]5C)[C@H](O)[C@@]2(C)[C@@H]4CC[C@H]3C1(C)C"
test_readout = "Ratio IC50"
result = 16

[[record]]
compound = "CC(=O)O[C@@H]([C@@H]1C[C@@H](C)[C@H]2[C@H](O1)[C@H](O)[C@@]1(C)[C@@H]3CC[C@H]4C(C)(C)[C@@H](OC(=O)NCCN)CC[C@@]45C[C@@]35CC[C@]21C)C(C)(C)O"
test_readout = "Ratio IC50"
result = 33

[[record]]
compound = "CC(=O)O[C@@H]([C@@H]1C[C@@H](C)[C@H]2[C@H](O1)[C@H](O)[C@@]1(C)[C@@H]3CC[C@H]4C(C)(C)[C@@H](OC(=O)C5(C)COC5)CC[C@@]45C[C@@]35CC[C@]21C)C(C)(C)O"
test_readout = "Ratio IC50"
result = "> 33"


Hi team, please reply with Ratio IC50 for each item in this list.
1. CC(=O)O[C@@H]([C@@H]1C[C@@H](C)[C@H]2[C@H](O1)[C@H](O)[C@@]1(C)[C@@H]3CC[C@H]4C(C)(C)[C@@H](OC(=O)NC5CN6CCC5CC6)CC[C@@]45C[C@@]35CC[C@]21C)C(C)(C)O (some centres undefined)
2. CC(=O)O[C@@H]([C@@H]1C[C@@H](C)[C@H]2[C@H](O1)[C@H](O)[C@@]1(C)[C@@H]3CC[C@H]4C(C)(C)[C@@H](OC(=O)NCCN(C)C)CC[C@@]45C[C@@]35CC[C@]21C)C(C)(C)O
3. CC(=O)O[C@@H]([C@@H]1C[C@@H](C)[C@H]2[C@H](O1)[C@H](O)[C@@]1(C)[C@@H]3CC[C@H]4C(C)(C)[C@@H](OC(=O)NCC(=O)O)CC[C@@]45C[C@@]35CC[C@]21C)C(C)(C)O
4. CC(=O)O[C@@H]([C@@H]1C[C@@H](C)[C@H]2[C@H](O1)[C@H](O)[C@@]1(C)[C@@H]3CC[C@H]4C(C)(C)[C@@H](OC(=O)c5cccnc5)CC[C@@]45C[C@@]35CC[C@]21C)C(C)(C)O

Result:
1. 29
2. > 11
3. > 8
4. 54
